tested on: FM3A; experiment: In vitro inhibition of FM3A (murine mammary carcinoma) cell proliferation.; assay type: functional; conditions: Mus musculus, read-out: CD50 (the source's name)
Below, each entry is listed alongside its reported CC50.

| molecule | CC50 |
| --- | --- |
| Cn1cc(NC(=O)CNC(=N)N)cc1C(=O)NCCCNCCCCN | > 200 µg/mL |
| CC(NC(=O)c1cc(NC(=O)c2cc([N+](=O)[O-])cn2C)cn1C)C(=O)NC(C)C(=O)OC(C)(C)C (stereo unspecified) | 27.2 µg/mL |
| CC(NC(=O)C(C)NC(=O)c1cc(NC(=O)c2cc(NC(=O)CNC(=N)N)cn2C)cn1C)C(=O)O (stereo unspecified) | > 100 µg/mL |
| Cn1cc([N+](=O)[O-])cc1C(=O)NCCCNCCCCN | > 200 µg/mL |
| C[C@H](NC(=O)c1cc(NC(=O)c2cc(NC(=O)CNC(=N)N)cn2C)cn1C)C(=O)N[C@@H](C)C(=O)N[C@@H](C)C(=O)OC(C)(C)C | > 100 µg/mL |
| CC(NC(=O)c1cc(NC(=O)c2cc([N+](=O)[O-])cn2C)cn1C)C(=O)OC(C)(C)C (stereo unspecified) | 27.7 µg/mL |

* * *

system: Human alphaherpesvirus 2; test: Minimum inhibitory concentration required to reduce herpes simplex virus-2(G) induced cytopathogenicity by 50% in primary rabbit kidney cells (PRK); assay type: functional

| compound | MIC |
| --- | --- |
| C[C@H](NC(=O)c1cc(NC(=O)c2cc([N+](=O)[O-])cn2C)cn1C)C(=O)N[C@@H](C)C(=O)N[C@@H](C)C(=O)OC(C)(C)C | > 200 µg/mL |
| CC(NC(=O)c1cc(NC(=O)c2cc([N+](=O)[O-])cn2C)cn1C)C(=O)OC(C)(C)C (centres undefined) | > 40 µg/mL |
| Cn1c(C(=O)O)ccc1[N+](=O)[O-] | > 400 µg/mL |
| Cn1cc(NC(=O)c2cc([N+](=O)[O-])cn2C)cc1C(=O)NCCC(=N)N | > 200 µg/mL |
| Nc1ncnc2c1ncn2C[C@H](O)CO [(S)-DHPA] | > 400 µg/mL |
| Cn1cc([N+](=O)[O-])cc1C(=O)NCCC#N | > 200 µg/mL |
| CC(NC(=O)c1cc(NC(=O)c2cc(NC(=O)CNC(=N)N)cn2C)cn1C)C(=O)O (centres undefined) | > 200 µg/mL |
| Cn1cc(NC(=O)c2cc([N+](=O)[O-])cn2C)cc1C(=O)NCCCNCCCCN | > 200 µg/mL |
| Cn1cc([N+](=O)[O-])cc1C(=O)NCCC(=N)N | > 200 µg/mL |
| Cn1cc([N+](=O)[O-])cc1C(=O)NCCCNCCCCN | > 200 µg/mL |
| CC(NC(=O)c1cc(NC(=O)c2cc(NC(=O)CNC(=N)N)cn2C)cn1C)C(=O)OC(C)(C)C (centres undefined) | > 400 µg/mL |
| Cn1cc([N+](=O)[O-])cc1C(=O)O | > 400 µg/mL |
| C[C@H](NC(=O)[C@H](C)NC(=O)[C@H](C)NC(=O)c1cc(NC(=O)c2cc(NC(=O)CNC(=N)N)cn2C)cn1C)C(=O)O | > 400 µg/mL |
| Cn1c(C(=O)NCCC(=N)N)ccc1[N+](=O)[O-] | > 100 µg/mL |

* * *

Below, each entry is listed alongside its reported K app.
test system: Nucleic Acid; experiment: Association constant against polynucleotide poly (dG-dC); format: nucleic-acid assay

| compound | comparison_sign | K app, M⁻¹ |
| --- | --- | --- |
| CC(NC(=O)c1cc(NC(=O)c2cc(NC(=O)CNC(=N)N)cn2C)cn1C)C(=O)OC(C)(C)C (stereo not drawn) | = | 10000 |
| C[C@H](NC(=O)[C@H](C)NC(=O)[C@H](C)NC(=O)c1cc(NC(=O)c2cc(NC(=O)CNC(=N)N)cn2C)cn1C)C(=O)O | = | 5000 |
| CC(NC(=O)C(C)NC(=O)c1cc(NC(=O)c2cc(NC(=O)CNC(=N)N)cn2C)cn1C)C(=O)O (stereo not drawn) | = | 1200 |
| C[C@H](NC(=O)c1cc(NC(=O)c2cc(NC(=O)CNC(=N)N)cn2C)cn1C)C(=O)N[C@@H](C)C(=O)N[C@@H](C)C(=O)OC(C)(C)C | = | 3300 |
| Cn1c(C(=O)NCCC#N)ccc1[N+](=O)[O-] | < | 100 |
| CC(NC(=O)c1cc(NC(=O)c2cc([N+](=O)[O-])cn2C)cn1C)C(=O)OC(C)(C)C (stereo not drawn) | = | 400 |
| Cn1c(C(=O)NCCC(=N)N)ccc1[N+](=O)[O-] | < | 100 |
| Cn1cc(NC(=O)c2cc(NC(=O)CNC(=N)N)cn2C)cc1C(=O)NCCCNCCCCN | = | 7.6e+06 |

* * *

system: Human alphaherpesvirus 2; assay: Minimum inhibitory concentration required to reduce herpes simplex virus-2(G) induced cytopathogenicity by 50% in primary rabbit kidney cells (PRK); assay type: functional
Below, each entry is listed alongside its reported MIC.

| molecule | MIC |
| --- | --- |
| Cn1cc(NC(=O)c2cc([N+](=O)[O-])cn2C)cc1C(=O)NCCC#N | > 10 µg/mL |
| COC(=O)c1cc(NC(=O)c2cc([N+](=O)[O-])cn2C)cn1C | > 10 µg/mL |
| COC(=O)c1ccc([N+](=O)[O-])n1C | > 400 µg/mL |
| Cn1cc(NC(=O)c2cc([N+](=O)[O-])cn2C)cc1C(=O)O | > 400 µg/mL |
| Cn1cc(NC(=O)CNC(=N)N)cc1C(=O)NCCCNCCCCN | > 400 µg/mL |
| CC(NC(=O)C(C)NC(=O)c1cc(NC(=O)c2cc(NC(=O)CNC(=N)N)cn2C)cn1C)C(=O)O (centres undefined) | > 400 µg/mL |
| CC(NC(=O)c1cc(NC(=O)c2cc(NC(=O)CNC(=N)N)cn2C)cn1C)C(=O)NC(C)C(=O)OC(C)(C)C (centres undefined) | > 200 µg/mL |
| CC(NC(=O)c1cc(NC(=O)c2cc([N+](=O)[O-])cn2C)cn1C)C(=O)NC(C)C(=O)OC(C)(C)C (centres undefined) | > 200 µg/mL |
| C[C@H](NC(=O)c1cc(NC(=O)c2cc(NC(=O)CNC(=N)N)cn2C)cn1C)C(=O)N[C@@H](C)C(=O)N[C@@H](C)C(=O)OC(C)(C)C | > 100 µg/mL |

* * *

test system: Vero; assay: Minimum inhibitory concentration required to reduce parainfluenza virus-3 induced cytopathogenicity by 50% in african green monkey (VeroB) cells; type: functional, Human respirovirus 3; conditions: Chlorocebus sabaeus

| compound | MIC |
| --- | --- |
| C[C@H](NC(=O)c1cc(NC(=O)c2cc([N+](=O)[O-])cn2C)cn1C)C(=O)N[C@@H](C)C(=O)N[C@@H](C)C(=O)OC(C)(C)C | > 400 µg/mL |
| Cn1c(C(=O)NCCC#N)ccc1[N+](=O)[O-] | > 100 µg/mL |
| Cn1c(C(=O)O)ccc1[N+](=O)[O-] | > 200 µg/mL |
| Cn1c(C(=O)NCCC(=N)N)ccc1[N+](=O)[O-] | 100 µg/mL |
| C[C@H](NC(=O)[C@H](C)NC(=O)[C@H](C)NC(=O)c1cc(NC(=O)c2cc(NC(=O)CNC(=N)N)cn2C)cn1C)C(=O)O | > 400 µg/mL |
| CC(NC(=O)c1cc(NC(=O)c2cc([N+](=O)[O-])cn2C)cn1C)C(=O)OC(C)(C)C (stereo not given) | 20 µg/mL |
| Cn1cc(NC(=O)c2cc([N+](=O)[O-])cn2C)cc1C(=O)NCCC(=N)N | > 200 µg/mL |
| Cn1cc(NC(=O)c2cc([N+](=O)[O-])cn2C)cc1C(=O)O | > 200 µg/mL |
| CC(NC(=O)c1cc(NC(=O)c2cc(NC(=O)CNC(=N)N)cn2C)cn1C)C(=O)NC(C)C(=O)OC(C)(C)C (stereo not given) | > 400 µg/mL |
| C[C@H](NC(=O)c1cc(NC(=O)c2cc(NC(=O)CNC(=N)N)cn2C)cn1C)C(=O)N[C@@H](C)C(=O)N[C@@H](C)C(=O)OC(C)(C)C | > 400 µg/mL |
| Cn1cc([N+](=O)[O-])cc1C(=O)NCCCNCCCCN | > 200 µg/mL |
| Nc1nccc2c1ncn2[C@@H]1C[C@H](CO)[C@@H](O)[C@H]1O | 0.4 µg/mL |
| Cn1cc([N+](=O)[O-])cc1C(=O)NCCC#N | > 400 µg/mL |
| COC(=O)c1ccc([N+](=O)[O-])n1C | > 100 µg/mL |
| Nc1ncnc2c1ncn2C[C@H](O)CO [(S)-DHPA] | 7 µg/mL |
| Cn1cc([N+](=O)[O-])cc1C(=O)O | > 400 µg/mL |
| Cn1cc(NC(=O)CNC(=N)N)cc1C(=O)NCCCNCCCCN | > 200 µg/mL |
| CC(NC(=O)C(C)NC(=O)c1cc(NC(=O)c2cc(NC(=O)CNC(=N)N)cn2C)cn1C)C(=O)O (stereo not given) | > 400 µg/mL |
| Nc1ncnc2c1ccn2[C@@H]1O[C@H](CO)[C@@H](O)[C@H]1O | 0.07 µg/mL |
| CC(NC(=O)c1cc(NC(=O)c2cc(NC(=O)CNC(=N)N)cn2C)cn1C)C(=O)O (stereo not given) | > 200 µg/mL |
